Molecular target: Cytochrome P450 2C9 (Homo sapiens, UniProt P11712)
Sequence (P11712 whole entry, canonical isoform): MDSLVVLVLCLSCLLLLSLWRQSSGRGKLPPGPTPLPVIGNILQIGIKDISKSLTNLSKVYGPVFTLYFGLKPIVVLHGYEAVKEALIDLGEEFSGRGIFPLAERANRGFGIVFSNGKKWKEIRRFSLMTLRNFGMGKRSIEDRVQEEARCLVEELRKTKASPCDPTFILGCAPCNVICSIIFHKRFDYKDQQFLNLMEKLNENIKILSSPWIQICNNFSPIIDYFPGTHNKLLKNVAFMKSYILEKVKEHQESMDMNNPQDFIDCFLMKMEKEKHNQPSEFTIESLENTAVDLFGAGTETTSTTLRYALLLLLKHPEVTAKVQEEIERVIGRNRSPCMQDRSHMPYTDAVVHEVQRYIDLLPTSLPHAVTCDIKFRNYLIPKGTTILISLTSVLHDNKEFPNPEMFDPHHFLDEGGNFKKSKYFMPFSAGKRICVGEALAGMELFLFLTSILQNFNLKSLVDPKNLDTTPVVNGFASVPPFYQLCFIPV
Test: Inhibitory activity against cytochrome P450 2C9 isoform
outcome measure: pIC50
pIC50 here: minus log base 10 of the concentration, concentration in moles per litre.

Tell us which pIC50 value is on record for O=C(CN(c1ccc(Cl)cc1)S(=O)(=O)c1ccc(CCCO)cc1)N/N=C1\C(=O)Nc2ccccc21 6.46

Give the reported pIC50 for this compound. COCCOCCOc1ccc(S(=O)(=O)N(CC(=O)N/N=C2\C(=O)Nc3ccccc32)c2ccc(Cl)cc2)cc1 6.48

* * *

Assay: Stability of compound in presence of rat liver microsomes
Format: ADME
Flag rule - metabolised less than 40% flags criterion met; the remaining entries get criterion not met.

Lab log: compare recorded metabolised with 40%; is it strictly lower for O=C(CN(c1ccc(Cl)cc1)S(=O)(=O)c1ccc(OCCN2CCOCC2)cc1)N/N=C1\C(=O)Nc2ccccc21 ? criterion met

A record lists O=C(CN(c1ccc(Cl)cc1)S(=O)(=O)c1ccc(CCCO)cc1)N/N=C1\C(=O)Nc2ccccc21 . Is its metabolised below 40%? criterion met

I wonder whether COCCOCCOc1ccc(S(=O)(=O)N(CC(=O)N/N=C2\C(=O)Nc3ccccc32)c2ccc(Cl)cc2)cc1 has metabolised below 40%. Can you tell? criterion not met

Is the reported metabolised for CN(C)CCCOc1ccc(S(=O)(=O)N(CC(=O)N/N=C2\C(=O)Nc3ccccc32)c2ccc(Cl)cc2)cc1 strictly below 40%? criterion met

Is 40% strictly greater than the molecule's reported metabolised? molecule: CN(C)CCCNC(=O)CCc1ccc(S(=O)(=O)N(CC(=O)N/N=C2\C(=O)Nc3ccccc32)c2ccc(Cl)cc2)cc1 criterion met

Is 40% strictly greater than the molecule's reported metabolised? molecule: CN(C)CCCOc1ccc(S(=O)(=O)N(CC(=O)N/N=C2\C(=O)NC(=O)c3ccccc32)c2ccc(Cl)cc2)cc1 criterion not met

* * *

Target: Oxytocin receptor (Rattus norvegicus) (UniProt P70536)
Sequence (P70536 whole entry): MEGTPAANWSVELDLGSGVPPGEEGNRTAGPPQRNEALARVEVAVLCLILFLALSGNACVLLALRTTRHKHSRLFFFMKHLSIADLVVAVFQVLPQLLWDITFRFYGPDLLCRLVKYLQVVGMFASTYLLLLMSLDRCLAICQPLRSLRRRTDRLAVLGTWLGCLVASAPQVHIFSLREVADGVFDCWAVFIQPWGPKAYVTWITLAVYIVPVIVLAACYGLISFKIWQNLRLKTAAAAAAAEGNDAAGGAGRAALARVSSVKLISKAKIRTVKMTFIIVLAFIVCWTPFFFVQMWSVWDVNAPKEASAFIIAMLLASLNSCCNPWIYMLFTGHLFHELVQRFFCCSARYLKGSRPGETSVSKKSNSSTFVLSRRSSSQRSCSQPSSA
Experiment: Inhibition of oxytocin-induced uterine contractions in nonpregnant rats administered at 10 mg/kg, iv
Format: functional, organism-based
Set-up: dose 10 mg/kg
Output rule met for inhibition not less than 40%; output rule not met otherwise.

Is inhibition for COCCOCCOc1ccc(S(=O)(=O)N(CC(=O)N/N=C2\C(=O)Nc3ccccc32)c2ccc(Cl)cc2)cc1 at or above 40%? rule not met

Is it the case that CN(C)CCCOc1ccc(S(=O)(=O)N(CC(=O)N/N=C2\C(=O)Nc3ccccc32)c2ccc(Cl)cc2)cc1 has inhibition reaching or exceeding 40%? rule met

Given the entry CN(C)CCCOc1ccc(S(=O)(=O)N(CC(=O)N/N=C2\C(=O)Nc3ccncc32)c2ccc(Cl)cc2)cc1 , answer whether its inhibition meets or surpasses 40%. rule not met

Please tell me: is the compound CN(C)CCCNC(=O)CCc1ccc(S(=O)(=O)N(CC(=O)N/N=C2\C(=O)Nc3ccccc32)c2ccc(Cl)cc2)cc1 at or over 40% in terms of inhibition? rule met

Is inhibition at least 40%? Consider O=C(CN(c1ccc(Cl)cc1)S(=O)(=O)c1ccc(OCCN2CCOCC2)cc1)N/N=C1\C(=O)Nc2ccccc21 rule met

I'd appreciate it if you could say whether CCOc1ccc(S(=O)(=O)N(CC(=O)N/N=C2\C(=O)Nc3ccccc32)c2ccc(C)cc2)cc1 has inhibition at least equal to 40%. rule met

* * *

Assay: Dissociation constant of the compound
Format: physicochemical
outcome measure: pKa
Number, no unit, nothing else.

Check the records and state pKa for CCOc1ccc(S(=O)(=O)N(CC(=O)N/N=C2\C(=O)Nc3ccncc32)c2ccc(Cl)cc2)cc1 4.4

* * *

Target: Vasopressin V1a receptor (Homo sapiens)
Sequence (P37288 whole entry): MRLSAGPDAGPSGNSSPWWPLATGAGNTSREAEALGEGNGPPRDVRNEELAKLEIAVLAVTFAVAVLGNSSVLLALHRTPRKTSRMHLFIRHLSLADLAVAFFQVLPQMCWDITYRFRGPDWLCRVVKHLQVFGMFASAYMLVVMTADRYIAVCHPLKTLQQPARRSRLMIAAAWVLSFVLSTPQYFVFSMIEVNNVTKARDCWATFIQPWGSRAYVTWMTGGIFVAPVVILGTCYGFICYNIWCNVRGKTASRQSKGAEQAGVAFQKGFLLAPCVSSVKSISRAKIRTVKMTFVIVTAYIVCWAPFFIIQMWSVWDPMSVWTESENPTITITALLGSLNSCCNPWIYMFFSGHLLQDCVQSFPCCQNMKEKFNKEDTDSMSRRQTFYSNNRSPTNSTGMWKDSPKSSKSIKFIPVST
Where a SMILES comes first, the peptide text is derived from it. Bridges are numbered along the chain shown (N, C = ends). [ ]: non-standard residue; d: D form. Orn = NCCC[C@H](N)C(=O)O; Mpa = O=C(O)CCS
outcome measure: Ki (nM)
Express your answer in nM, writing the number without its unit.

Give the measured Ki for CN(C)CCCOc1ccc(S(=O)(=O)N(CC(=O)N/N=C2\C(=O)Nc3ccncc32)c2ccc(Cl)cc2)cc1 618

Provide only the value of recorded Ki for CCOc1ccc(C[C@H]2NC(=O)CCSSC[C@@H](C(=O)N3CCC[C@H]3C(=O)N[C@@H](CCCN)C(=O)NCC(N)=O)NC(=O)[C@H](CC(N)=O)NC(=O)[C@H]([C@@H](C)O)NC(=O)[C@H]([C@@H](C)CC)NC2=O)cc1 [ATOSIBAN] ([Mpa][dY](Et)ITNCP[Orn]G-NH2; disulfide 1-6) 0.63

Annotate the molecule CCOc1ccc(S(=O)(=O)N(CC(=O)NN=C2C(=O)Nc3ccccc32)c2ccc(C)cc2)cc1 with its measured Ki. 1410

Complete the entry with Ki for CCOc1ccc(S(=O)(=O)N(CC(=O)N2Cc3ccccc3CC2C(N)=O)c2ccc(OC)cc2)cc1 (stereo not drawn) 570

Item CN(C)CCCNC(=O)CCc1ccc(S(=O)(=O)N(CC(=O)N/N=C2\C(=O)Nc3ccccc32)c2ccc(Cl)cc2)cc1 : provide Ki 42

* * *

Where a SMILES comes first, the peptide text is derived from it. Bridges are numbered along the chain shown (N, C = ends). [ ]: non-standard residue; d: D form. Orn = NCCC[C@H](N)C(=O)O; Mpa = O=C(O)CCS
As a worked illustration, we turn to Ki data collected for Oxytocin receptor (Rattus norvegicus).
Please state the figure in nM; there is no need to write the unit.

Entry CN(C)CCCOc1ccc(S(=O)(=O)N(CC(=O)N/N=C2\C(=O)Nc3ccncc32)c2ccc(Cl)cc2)cc1 needs its Ki filled in; supply it. 140

Supply reported Ki belonging to this compound: CCOc1ccc(C[C@H]2NC(=O)CCSSC[C@@H](C(=O)N3CCC[C@H]3C(=O)N[C@@H](CCCN)C(=O)NCC(N)=O)NC(=O)[C@H](CC(N)=O)NC(=O)[C@H]([C@@H](C)O)NC(=O)[C@H]([C@@H](C)CC)NC2=O)cc1 [ATOSIBAN] ([Mpa][dY](Et)ITNCP[Orn]G-NH2; disulfide 1-6) 76

Find the measured Ki of COCCOc1ccc(S(=O)(=O)N(CC(=O)N/N=C2\C(=O)Nc3ccccc32)c2ccc(Cl)cc2)cc1 and report it. 33

Indicate its recorded Ki; the compound in question is COCCOCCOc1ccc(S(=O)(=O)N(CC(=O)N/N=C2\C(=O)Nc3ccccc32)c2ccc(Cl)cc2)cc1 12

Fill in reported Ki for this entry: CN(C)CCCOc1ccc(S(=O)(=O)N(CC(=O)N/N=C2\C(=O)NC(=O)c3ccccc32)c2ccc(Cl)cc2)cc1 2.7

* * *

Experiment: Solubility in saline
Assay type: physicochemical
Exercise: state measured solubility for each of the compounds provided.
Please give a number only; it is taken to be in µg/mL.

Please report solubility for the following compound: CN(C)CCCOc1ccc(S(=O)(=O)N(CC(=O)/N=N/c2c(O)[nH]c3ccccc23)c2ccc(Cl)cc2)cc1.Cl 7

Report measured solubility; entry is CN(C)CCCOc1ccc(S(=O)(=O)N(CC(=O)N/N=C2\C(=O)NC(=O)c3ccccc32)c2ccc(Cl)cc2)cc1 2

Quote solubility reported for CNCCCC12CCC(c3ccccc31)c1ccccc12.Cl [MAPROTILINE HYDROCHLORIDE] please. 2

For the compound CN(C)CCCOc1ccc(S(=O)(=O)N(CC(=O)/N=N/c2c(O)[nH]c3ccncc23)c2ccc(Cl)cc2)cc1.O=C(O)C(F)(F)F , give its reported solubility. 10000

Query solubility for Cl.O=C(CN(c1ccc(Cl)cc1)S(=O)(=O)c1ccc(OCCN2CCOCC2)cc1)/N=N/c1c(O)[nH]c2ccccc12 2.5

Read off the recorded solubility for CN(C)CCCNC(=O)CCc1ccc(S(=O)(=O)N(CC(=O)/N=N/c2c(O)[nH]c3ccccc23)c2ccc(Cl)cc2)cc1.O=C(O)/C=C/C(=O)O 10000

* * *

Provide the reported Ratio Ki of each item.
Species on record: Homo sapiens
Assay: Selectivity for human vasopressin V1a receptor over human oxytocin receptor

Provide Ratio Ki value for the following molecule: CN(C)CCCOc1ccc(S(=O)(=O)N(CC(=O)N/N=C2\C(=O)Nc3ccccc32)c2ccc(Cl)cc2)cc1 59

Quote Ratio Ki reported for COc1ccc(-c2ccc(S(=O)(=O)N(CC(=O)/N=N/c3c(O)[nH]c4ccccc34)c3ccc(C)cc3)cc2)cc1 please. > 47

Output measured Ratio Ki for this item: Cc1ccc(N(CC(=O)N/N=C2\C(=O)Nc3ccccc32)S(=O)(=O)c2cccc3ccccc23)cc1 > 58

* * *

Target: Oxytocin receptor (Homo sapiens)
Sequence (P30559 whole entry): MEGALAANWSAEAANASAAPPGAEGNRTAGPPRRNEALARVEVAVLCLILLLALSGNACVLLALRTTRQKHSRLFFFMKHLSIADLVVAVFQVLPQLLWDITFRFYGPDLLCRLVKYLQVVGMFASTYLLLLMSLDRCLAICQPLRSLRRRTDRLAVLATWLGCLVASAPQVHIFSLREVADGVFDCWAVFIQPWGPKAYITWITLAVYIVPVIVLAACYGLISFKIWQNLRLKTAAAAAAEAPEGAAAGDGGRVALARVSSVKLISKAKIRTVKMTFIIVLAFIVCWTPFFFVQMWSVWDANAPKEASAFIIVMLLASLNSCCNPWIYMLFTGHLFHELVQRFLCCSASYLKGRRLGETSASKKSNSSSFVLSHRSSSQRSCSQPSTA
Where a SMILES comes first, the peptide text is derived from it. Bridges are numbered along the chain shown (N, C = ends). [ ]: non-standard residue; d: D form. Orn = NCCC[C@H](N)C(=O)O; Mpa = O=C(O)CCS
Give Ki for every item shown.
Give just the number in nM; leave the unit off.

Give a short answer stating reported Ki for CC(C)(C)c1ccc(S(=O)(=O)N(CC(=O)N/N=C2/C(=O)Nc3ccccc32)c2ccc(Cl)cc2)cc1 . 61

Assign Ki to the following record: Cc1ccc(N(CC(=O)N/N=C2\C(=O)Nc3ccccc32)S(=O)(=O)c2ccc(C#N)cc2)cc1 111

Answer with reported Ki of O=C(CN(c1ccc(Cl)cc1)S(=O)(=O)c1ccc(OCCN2CCOCC2)cc1)N/N=C1\C(=O)Nc2ccccc21 0.9

Give the value of Ki reported for the following: COc1ccc(N(CC(=O)Nc2cccc(Cl)c2C)S(=O)(=O)c2ccccc2)cc1 100

// Input: CCOc1ccc(S(=O)(=O)N(CC(=O)N2Cc3ccccc3C2C(N)=O)c2ccc(OC)cc2)cc1 (configuration not stated) . Output its Ki only. 770

// Input: CCOc1ccc(C[C@H]2NC(=O)CCSSC[C@@H](C(=O)N3CCC[C@H]3C(=O)N[C@@H](CCCN)C(=O)NCC(N)=O)NC(=O)[C@H](CC(N)=O)NC(=O)[C@H]([C@@H](C)O)NC(=O)[C@H]([C@@H](C)CC)NC2=O)cc1 [ATOSIBAN] ([Mpa][dY](Et)ITNCP[Orn]G-NH2; disulfide 1-6) . Output its Ki only. 27
